- targetOrSystem: FLAG-tagged wild-type elephant shark GR (Callorhinchus milii, UniProt A0A4W3H7L4)
- Construct: full-length, N-terminal FLAG tag, transiently expressed in HEK293 cells
- experimentDescription: luciferase reporter transactivation in HEK293 cells
- Type: cell-based
- measurementSetup: MMTV-luc promoter; agonist; 37 C
- Sequence (A0A4W3H7L4 entry or part of it): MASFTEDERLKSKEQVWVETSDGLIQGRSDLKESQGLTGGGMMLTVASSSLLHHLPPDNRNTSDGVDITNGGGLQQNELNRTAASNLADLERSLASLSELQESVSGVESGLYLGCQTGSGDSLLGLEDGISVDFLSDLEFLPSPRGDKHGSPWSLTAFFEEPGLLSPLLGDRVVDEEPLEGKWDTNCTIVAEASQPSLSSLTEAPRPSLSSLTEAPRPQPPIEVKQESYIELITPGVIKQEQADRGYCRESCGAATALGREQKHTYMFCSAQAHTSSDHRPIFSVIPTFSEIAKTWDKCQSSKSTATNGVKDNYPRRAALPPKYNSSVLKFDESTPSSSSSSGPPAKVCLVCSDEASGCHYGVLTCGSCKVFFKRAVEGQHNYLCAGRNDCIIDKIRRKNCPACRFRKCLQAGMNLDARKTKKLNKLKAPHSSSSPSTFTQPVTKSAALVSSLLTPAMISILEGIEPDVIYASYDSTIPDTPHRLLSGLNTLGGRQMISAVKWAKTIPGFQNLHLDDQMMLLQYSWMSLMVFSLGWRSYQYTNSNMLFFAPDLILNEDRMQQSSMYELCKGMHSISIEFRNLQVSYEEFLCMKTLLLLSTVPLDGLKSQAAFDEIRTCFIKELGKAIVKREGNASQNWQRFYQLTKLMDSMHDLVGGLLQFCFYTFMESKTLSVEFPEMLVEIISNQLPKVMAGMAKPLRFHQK
valueKind: EC50 (µM)
Answer in µM, number only, no unit symbol.

I have this compound here, C[C@]12CCC(=O)C=C1CC[C@@H]1[C@@H]2[C@@H](O)C[C@@]2(C)[C@H]1CC[C@]2(O)C(=O)CO , and I need its recorded EC50.
0.0139

---

- targetOrSystem: FLAG-tagged wild-type elephant shark MR (Callorhinchus milii, UniProt A0A4W3I5J5)
- Construct: gene nr3c2; full-length, N-terminal FLAG tag, transiently expressed in HEK293 cells
- Sequence (A0A4W3I5J5 entry or part of it): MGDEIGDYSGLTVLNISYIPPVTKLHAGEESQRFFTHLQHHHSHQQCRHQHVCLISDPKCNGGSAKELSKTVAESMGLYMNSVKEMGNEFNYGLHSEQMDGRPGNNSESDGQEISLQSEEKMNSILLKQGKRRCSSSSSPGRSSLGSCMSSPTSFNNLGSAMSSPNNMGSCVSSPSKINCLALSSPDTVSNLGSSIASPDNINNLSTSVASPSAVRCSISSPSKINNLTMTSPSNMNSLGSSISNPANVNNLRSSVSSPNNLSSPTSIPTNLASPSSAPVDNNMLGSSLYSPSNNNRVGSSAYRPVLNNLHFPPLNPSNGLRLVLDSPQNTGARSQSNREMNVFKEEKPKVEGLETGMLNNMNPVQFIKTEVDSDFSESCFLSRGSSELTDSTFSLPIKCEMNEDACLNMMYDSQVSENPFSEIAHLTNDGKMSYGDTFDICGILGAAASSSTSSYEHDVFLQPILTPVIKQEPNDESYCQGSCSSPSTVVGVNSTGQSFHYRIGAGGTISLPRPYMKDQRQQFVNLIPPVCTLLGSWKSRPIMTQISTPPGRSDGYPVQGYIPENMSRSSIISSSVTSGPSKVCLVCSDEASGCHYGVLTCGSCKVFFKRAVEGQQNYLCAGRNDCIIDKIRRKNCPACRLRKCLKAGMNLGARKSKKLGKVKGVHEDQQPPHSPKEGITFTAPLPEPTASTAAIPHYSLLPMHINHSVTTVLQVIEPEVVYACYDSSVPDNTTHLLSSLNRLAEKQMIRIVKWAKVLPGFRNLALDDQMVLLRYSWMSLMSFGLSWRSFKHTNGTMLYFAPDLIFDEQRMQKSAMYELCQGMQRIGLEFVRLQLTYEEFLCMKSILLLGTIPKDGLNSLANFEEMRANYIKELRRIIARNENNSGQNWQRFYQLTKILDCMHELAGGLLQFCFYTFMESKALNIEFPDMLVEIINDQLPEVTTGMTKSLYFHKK
- experimentDescription: luciferase reporter transactivation in HEK293 cells
- Format: cell-based
- measurementSetup: MMTV-luc promoter; agonist; 37 C
valueKind: EC50 (nM)
Answer in nM, number only, no unit symbol.

C[C@]12CCC(=O)C=C1CC[C@@H]1[C@@H]2[C@@H](O)C[C@@]2(C)[C@H]1CC[C@]2(O)C(=O)CO [Cortisol]    0.5

Now look at this entry.
Request body: readout EC50, system FLAG-tagged wild-type elephant shark MR (Callorhinchus milii, UniProt A0A4W3I5J5), query C[C@]12CCC(=O)C=C1CC[C@@H]1[C@@H]2CC[C@@]2(C)[C@H]1CC[C@]2(O)C(=O)CO [S, 11-deoxycortisol] . Return the value.
0.13

---

- targetOrSystem: FLAG-tagged wild-type elephant shark GR (Callorhinchus milii, UniProt A0A4W3H7L4)
- Construct: full-length, N-terminal FLAG tag, transiently expressed in HEK293 cells
- experimentDescription: luciferase reporter transactivation in HEK293 cells
- Type: cell-based
- Sequence (A0A4W3H7L4 1-704): as the sequence (A0A4W3H7L4 entry or part of it) above
valueKind: pEC50
Reminder that pEC50 is minus the log10 of a molar concentration.

Example compounds with recorded pEC50:
C[C@]12CCC(=O)C=C1CC[C@@H]1[C@@H]2[C@@H](O)C[C@]2(C=O)[C@@H](C(=O)CO)CC[C@@H]12    7.85
C[C@]12CCC(=O)C=C1CC[C@@H]1[C@@H]2[C@@H](O)C[C@@]2(C)[C@H]1CC[C@]2(O)C(=O)CO    7.60
C[C@]12C[C@H](O)[C@H]3[C@@H](CCC4=CC(=O)CC[C@@]43C)[C@@H]1CC[C@@H]2C(=O)CO    8.22

I have this compound here, C[C@]12CC[C@H]3[C@@H](CCC4=CC(=O)CC[C@@]43C)[C@@H]1CC[C@@H]2C(=O)CO , and I need its recorded pEC50.
7.89
